Test system: Mus musculus
testSummary: Suppressive blood schizonticidal antimalarial activity evaluated in the trophozoite-induced Plasmodium berghei infection in mice (Mus musculus) at a dose 160 mg/kg given as no. of toxic deaths
Assay type: functional
metricName: Toxic deaths
Keep the answer to the number alone.

Return Toxic deaths for the following molecule: C=CCCOc1c(OC)cc(NC(C)CCCN)c2nccc(C)c12 (configuration not stated) 5

Look up and state reported Toxic deaths for CCCC(CC)Oc1c(OC)cc(NC(C)CCCN)c2ncc(C)cc12 (configuration not stated) 4

Supply Toxic deaths value. Item: CCCCOc1c(OC)cc(NC(C)CCCN)c2nccc(C)c12 (configuration not stated) 5

State its Toxic deaths for this molecule: COc1cc(NC(C)CCCN)c2ncccc2c1 (configuration not stated) 2

Hello, please tell me recorded Toxic deaths for this one: CCCCCCCOc1c(OC)cc(NC(C)CCCN)c2nccc(C)c12 (configuration not stated) 1

Give Toxic deaths for the following molecule: CCCOc1c(OC)cc(NC(C)CCCN)c2nccc(C)c12 (configuration not stated) 5

Quick one: give measured Toxic deaths for COc1cc(NC(C)CCCN)c2ncc(C)cc2c1 (configuration not stated) 2

Indicate its recorded Toxic deaths; the molecule in question is COc1cc(NC(C)CCCN)c2nccc(C)c2c1OC (configuration not stated) 1

In one line, give reported Toxic deaths of the entry CCCCOCCOc1c(OC)cc(NC(C)CCCN)c2nccc(C)c12 (configuration not stated) . 3

Look up and report measured Toxic deaths for this entry: COCCCCCCOc1c(OC)cc(NC(C)CCCN)c2nccc(C)c12 (configuration not stated) 5

Return value of Toxic deaths for input CCCCCCOc1c(OC)cc(NC(C)CCCN)c2nc(C)cc(C)c12 (configuration not stated) , no commentary. 5

Quick one: give measured Toxic deaths for CCCCOc1c(OC)cc(NC(C)CCCN)c2ncccc12 (configuration not stated) 3
